System: ragweed (common ragweed, Ambrosia artemisiifolia)
TEST_METHOD_NOTES: Test A postemergence, ragweed
Assay type: in vivo
CONDITION_SET: Postemergence, 500 g ai/ha; visual injury vs untreated controls after approx. 10 days; 0 to 100 scale (0 no effect, 100 complete control)
Item-by-item account of Ragweed plant response rating

| MOLECULE | Ragweed plant response rating |
| --- | --- |
| Cc1cc(C)c(C2=NOC3(CCC4(CC3)OCCO4)C2)cc1NS(=O)(=O)C(F)(F)F [Compound 135] | 80 |
| Cc1c(NS(=O)(=O)C(F)(F)F)cc(C(=O)N2CCC3(CC2)OCCCO3)c(C)c1F [Compound 129] | 90 |
| CCn1nc(Cl)cc(-c2cc(N(S(C)(=O)=O)S(=O)(=O)C(F)(F)F)c(C)cc2C)c1=O [Compound 45] | 70 |
| CCC1(CC)CC(c2cc(NS(=O)(=O)C(F)(F)F)c(C)cc2C)=NO1 [Compound 209] | 60 |

---

Item-by-item account of Plant response rating, Blackgrass
Test system: blackgrass (Alopecurus myosuroides)
TEST_METHOD_NOTES: Test A1 preemergence, blackgrass
Assay type: in vivo
CONDITION_SET: 31 g ai/ha, 0 to 100 scale (0 no effect, 100 complete control)
MEASUREMENT_LABEL: Plant response rating, Blackgrass

| COMPOUND | MEASUREMENT_TARGET | MEASUREMENT_LABEL | RESULT_VALUE |
| --- | --- | --- | --- |
| CCOC(=O)N(c1cc(C(=O)N2C[C@@H](C)O[C@H](C)C2)c(C)c(C)c1C)S(=O)(=O)C(F)(F)F (relative stereo) | blackgrass (Alopecurus myosuroides) | Plant response rating, Blackgrass | 0 |
| CCC1CC(c2cc(NS(=O)(=O)C(F)(F)F)c(C)cc2C)=NO1 (stereo not shown) | blackgrass (Alopecurus myosuroides) | Plant response rating, Blackgrass | 20 |
| CCC1ON=C(c2cc(NS(=O)(=O)C(F)(F)F)c(C)cc2C)C1CC (stereo not shown) | blackgrass (Alopecurus myosuroides) | Plant response rating, Blackgrass | 80 |
| COC1CCCN(C(=O)c2cc(NS(=O)(=O)C(F)(F)F)c(Cl)c(F)c2C)C1 (stereo not shown) | blackgrass (Alopecurus myosuroides) | Plant response rating, Blackgrass | 10 |

---

System: barnyardgrass (Echinochloa crus-galli)
TEST_METHOD_NOTES: Test A postemergence, barnyardgrass
Assay type: in vivo
CONDITION_SET: Postemergence, 500 g ai/ha; visual injury vs untreated controls after approx. 10 days; 0 to 100 scale (0 no effect, 100 complete control)
Item-by-item account of Barnyardgrass plant response rating
MEASUREMENT_LABEL: Barnyardgrass plant response rating

| SMILES | RESULT_VALUE |
| --- | --- |
| Cc1cc(F)c(-c2ccnn(C)c2=O)cc1NS(=O)(=O)C(F)(F)F | 90 |
| Cc1cc(Cl)c(C2=NOC3(CCCC3)C2)cc1N(S(=O)(=O)C(F)(F)F)S(=O)(=O)C(F)(F)F | 20 |
| Cc1cc(C)c(-c2cc(Br)nn(C)c2=O)cc1NS(=O)(=O)C(F)(F)F | 80 |
| Cc1cc(Cl)c(C2=NOC3(CCCC3)C2)cc1NS(=O)(=O)C(F)(F)F | 20 |

---

Item-by-item account of Plant response rating, Ryegrass, Italian
Tested on: Ryegrass, Italian (Italian ryegrass, Lolium multiflorum)
TEST_METHOD_NOTES: Test A postemergence, Ryegrass, Italian
Type: in vivo
CONDITION_SET: Postemergence, 125 g ai/ha; 0 to 100 scale (0 no effect, 100 complete control)
MEASUREMENT_LABEL: Plant response rating, Ryegrass, Italian

| COMPOUND | MEASUREMENT_TARGET | MEASUREMENT_LABEL | RESULT_VALUE |
| --- | --- | --- | --- |
| CC(=O)N(c1cc(N2CCC3(CCCCC3)C2=O)c(C)cc1C)S(=O)(=O)C(F)(F)F [Compound 265] | Ryegrass, Italian (Italian ryegrass, Lolium multiflorum) | Plant response rating, Ryegrass, Italian | 20 |
| Cc1cc(F)c(C(=O)N2CCOCC2)cc1N(S(=O)(=O)C(F)(F)F)S(=O)(=O)C(F)(F)F [Compound 237] | Ryegrass, Italian (Italian ryegrass, Lolium multiflorum) | Plant response rating, Ryegrass, Italian | 40 |
| Cc1cc(C)c(N(S(=O)(=O)C(F)(F)F)S(=O)(=O)C(F)(F)F)cc1C1=NOC2(CCC(C)(C)CC2)C1 [Compound 139] | Ryegrass, Italian (Italian ryegrass, Lolium multiflorum) | Plant response rating, Ryegrass, Italian | 0 |
| Cc1cc(C)c(C2=NOC3(C2)CC(C)CC(C)C3)cc1NS(=O)(=O)C(F)(F)F (single isomer, unassigned) [Compound 168] | Ryegrass, Italian (Italian ryegrass, Lolium multiflorum) | Plant response rating, Ryegrass, Italian | 30 |
| Cc1cc(Cl)c(C(=O)N2CCOCC2)cc1N(S(=O)(=O)C(F)(F)F)S(=O)(=O)C(F)(F)F [Compound 250] | Ryegrass, Italian (Italian ryegrass, Lolium multiflorum) | Plant response rating, Ryegrass, Italian | 0 |
| C#CCN(CC#C)C(=O)c1cc(N(S(=O)(=O)C(F)(F)F)S(=O)(=O)C(F)(F)F)c(C)cc1C [Compound 181] | Ryegrass, Italian (Italian ryegrass, Lolium multiflorum) | Plant response rating, Ryegrass, Italian | 70 |
| Cc1cc(C)c(C(=O)N2CCC3(CCCCC3)CC2)cc1NS(=O)(=O)C(F)(F)F [Compound 195] | Ryegrass, Italian (Italian ryegrass, Lolium multiflorum) | Plant response rating, Ryegrass, Italian | 0 |
| Cc1cc(C)c(C2=NOC3(C2)CC(C)CC(C)C3)cc1NS(=O)(=O)C(F)(F)F (single isomer, unassigned) [Compound 167] | Ryegrass, Italian (Italian ryegrass, Lolium multiflorum) | Plant response rating, Ryegrass, Italian | 20 |
| Cc1cc(Cl)c(N(S(=O)(=O)C(F)(F)F)S(=O)(=O)C(F)(F)F)cc1C(=O)N1CCC(Cl)CC1 [Compound 200] | Ryegrass, Italian (Italian ryegrass, Lolium multiflorum) | Plant response rating, Ryegrass, Italian | 20 |
| Cc1cc(C)c(C2=NOC(C)(C)C2)cc1NS(=O)(=O)C(F)(F)F [Compound 206] | Ryegrass, Italian (Italian ryegrass, Lolium multiflorum) | Plant response rating, Ryegrass, Italian | 50 |
| Cc1cc(C)c(C2=NOC3(CCC(F)(F)CC3)C2)cc1NS(=O)(=O)C(F)(F)F [Compound 172] | Ryegrass, Italian (Italian ryegrass, Lolium multiflorum) | Plant response rating, Ryegrass, Italian | 60 |
| COC1CCCN(C(=O)c2cc(NS(=O)(=O)C(F)(F)F)c(Cl)cc2C)C1 (centres unmarked) [Compound 146] | Ryegrass, Italian (Italian ryegrass, Lolium multiflorum) | Plant response rating, Ryegrass, Italian | 30 |
| Cc1cc(C)c(N2CC3(CCOCC3)OC2=O)cc1NS(=O)(=O)C(F)(F)F [Compound 156] | Ryegrass, Italian (Italian ryegrass, Lolium multiflorum) | Plant response rating, Ryegrass, Italian | 10 |
| CCCCC(=O)OCN(c1cc(C2=NOC3(CCCC3)C2)c(C)cc1C)S(=O)(=O)C(F)(F)F [Compound 143] | Ryegrass, Italian (Italian ryegrass, Lolium multiflorum) | Plant response rating, Ryegrass, Italian | 20 |
| Cc1cc(C)c(N(S(=O)(=O)C(F)(F)F)S(=O)(=O)C(F)(F)F)cc1C(=O)N(C)CC1CC1 [Compound 169] | Ryegrass, Italian (Italian ryegrass, Lolium multiflorum) | Plant response rating, Ryegrass, Italian | 10 |
| Cc1cc(F)c(C(=O)N(C)C)cc1NS(=O)(=O)C(F)(F)F [Compound 215] | Ryegrass, Italian (Italian ryegrass, Lolium multiflorum) | Plant response rating, Ryegrass, Italian | 0 |
| Cc1cc(Cl)c(NS(=O)(=O)C(F)(F)F)cc1C(=O)N1CCOCC1(C)C [Compound 153] | Ryegrass, Italian (Italian ryegrass, Lolium multiflorum) | Plant response rating, Ryegrass, Italian | 80 |
| Cc1cc(C(F)(F)F)c(NS(=O)(=O)C(F)(F)F)cc1C(=O)N1CCCCC1 [Compound 165] | Ryegrass, Italian (Italian ryegrass, Lolium multiflorum) | Plant response rating, Ryegrass, Italian | 0 |
| Cc1cc(C)c(C2=NOC3(CCOCC3)C2)cc1NS(=O)(=O)C(F)(F)F [Compound 177] | Ryegrass, Italian (Italian ryegrass, Lolium multiflorum) | Plant response rating, Ryegrass, Italian | 40 |
| Cc1cc(C)c(N2CC3(CCCCC3)OC2=O)cc1NS(=O)(=O)C(F)(F)F [Compound 279] | Ryegrass, Italian (Italian ryegrass, Lolium multiflorum) | Plant response rating, Ryegrass, Italian | 0 |
| Cc1cc(C)c(C2=NOC(C)(CCl)C2)cc1NS(=O)(=O)C(F)(F)F (centres unmarked) [Compound 226] | Ryegrass, Italian (Italian ryegrass, Lolium multiflorum) | Plant response rating, Ryegrass, Italian | 30 |
| Cc1c(NS(=O)(=O)C(F)(F)F)cc(C(=O)N2CCCCC2)c(C)c1F [Compound 191] | Ryegrass, Italian (Italian ryegrass, Lolium multiflorum) | Plant response rating, Ryegrass, Italian | 30 |
| Cc1cc(Cl)c(C(=O)N(C)C)cc1N(S(=O)(=O)C(F)(F)F)S(=O)(=O)C(F)(F)F [Compound 256] | Ryegrass, Italian (Italian ryegrass, Lolium multiflorum) | Plant response rating, Ryegrass, Italian | 0 |
| C#CCN(C)C(=O)c1cc(NS(=O)(=O)C(F)(F)F)c(C)c(F)c1C [Compound 179] | Ryegrass, Italian (Italian ryegrass, Lolium multiflorum) | Plant response rating, Ryegrass, Italian | 40 |
| CCOC1CCCN(C(=O)c2cc(NS(=O)(=O)C(F)(F)F)c(C)cc2C)C1 (centres unmarked) [Compound 154] | Ryegrass, Italian (Italian ryegrass, Lolium multiflorum) | Plant response rating, Ryegrass, Italian | 0 |
| Cc1cc(C)c(N(COC(=O)c2ccccc2)S(=O)(=O)C(F)(F)F)cc1C1=NOC2(CCCC2)C1 [Compound 149] | Ryegrass, Italian (Italian ryegrass, Lolium multiflorum) | Plant response rating, Ryegrass, Italian | 0 |
| C#CCN(C)C(=O)c1cc(NS(=O)(=O)C(F)(F)F)c(C)cc1C [Compound 189] | Ryegrass, Italian (Italian ryegrass, Lolium multiflorum) | Plant response rating, Ryegrass, Italian | 80 |
| Cc1cc(Cl)c(C2=NOC3(CCCC3)C2)cc1N(S(=O)(=O)C(F)(F)F)S(=O)(=O)C(F)(F)F [Compound 186] | Ryegrass, Italian (Italian ryegrass, Lolium multiflorum) | Plant response rating, Ryegrass, Italian | 0 |
| Cc1cc(C)c(N(COC(=O)C2CCCC2)S(=O)(=O)C(F)(F)F)cc1C1=NOC2(CCCC2)C1 [Compound 150] | Ryegrass, Italian (Italian ryegrass, Lolium multiflorum) | Plant response rating, Ryegrass, Italian | 0 |
| Cc1cc(C)c(C(=O)N2CCCOCC2)cc1NS(=O)(=O)C(F)(F)F [Compound 160] | Ryegrass, Italian (Italian ryegrass, Lolium multiflorum) | Plant response rating, Ryegrass, Italian | 0 |
| Cc1cc(Cl)c(NS(=O)(=O)C(F)(F)F)cc1C(=O)N1CCC(Cl)CC1 [Compound 224] | Ryegrass, Italian (Italian ryegrass, Lolium multiflorum) | Plant response rating, Ryegrass, Italian | 30 |
| COC1CCCN(C(=O)c2cc(NS(=O)(=O)C(F)(F)F)c(C)cc2C)CC1 (centres unmarked) [Compound 137] | Ryegrass, Italian (Italian ryegrass, Lolium multiflorum) | Plant response rating, Ryegrass, Italian | 0 |
